Data provenance: patent US10829499B2

- System: HIV-1 (NL4-3 strain)
- Experiment Summary: Assay for Inhibition of HIV Replication (kinetic assay, MT4-gag-GFP reporter cell line; VIKING)
- Format: cell-based
- Condition Description: MT4-GFP cells infected with HIV-1 NL4-3; 100% normal human serum (NHS); read-out: VIKING IP50 (nM) with 100% NHS
Assignment: determine reported IC50 for the given compounds.
Give bare numbers, in nM.

[
  {
    "Compound": "O=C(NCc1cccc(Cl)c1F)c1c2n3c(c(O)c1=O)C(=O)N1C4CCC(C4)OC1C3CC2 (centres unmarked) [Compound 154]",
    "Value Observed": 79.2
  }
]

Hi team, please reply with IC50 for each item in this list.
1. C[C@@H]1CN2C(=O)c3c(O)c(=O)c(C(=O)NCc4cccc(Cl)c4F)c4n3C(CC4)C2O1 (single isomer, unassigned) [Compound 41]
2. O=C(NCc1cccc(Cl)c1F)c1c2n3c(c(O)c1=O)C(=O)N1CCCCOC1C3CC2 (single isomer, unassigned) [Compound 66]
3. C[C@H]1CN2C(=O)c3c(O)c(=O)c(C(=O)NCc4ccc(F)cc4F)c4n3C(CC4)C2N1 (some centres unmarked) [Compound 97]
4. C[C@H]1COC2C3CCc4c(C(=O)NCc5ccc(F)cc5F)c(=O)c(O)c(n43)C(=O)N21 (single isomer, unassigned) [Compound 27]
5. CCN1C[C@H](C)N2C(=O)c3c(O)c(=O)c(C(=O)NCc4cccc(Cl)c4F)c4n3C(CC4)C12 (some centres unmarked) [Compound 111]
6. C[C@H]1CN2C(=O)c3c(O)c(=O)c(C(=O)NCc4cccc(Cl)c4F)c4n3C(CC4)C2N1 (some centres unmarked) [Compound 92]

1. 2380
2. 834
3. 48.3
4. 956
5. 260
6. 8.12

* * *

For each record, write down the corresponding IC50.
- System: HIV-1 (NL4-3 strain)
- Experiment Summary: Assay for Inhibition of HIV Replication (kinetic assay, MT4-gag-GFP reporter cell line; VIKING)
- Format: cell-based
- Condition Description: MT4-GFP cells infected with HIV-1 NL4-3; 100% normal human serum (NHS); read-out: VIKING IP50 (nM) with 100% NHS
Give bare numbers, in nM.

[
  {
    "Compound": "O=C(NCc1ccc(F)c(Cl)c1)c1c2n3c(c(O)c1=O)C(=O)N1CCOC1C3CC2 (single isomer, unassigned) [Compound 23]",
    "Property": "IC50",
    "Quantity Unit": "nM",
    "Value Observed": 2190
  },
  {
    "Compound": "O=C(NCc1cccc(Cl)c1F)c1c2n3c(c(O)c1=O)C(=O)N1CCOC1C3CC2 (single isomer, unassigned) [Compound 5]",
    "Property": "IC50",
    "Quantity Unit": "nM",
    "Value Observed": 2250
  },
  {
    "Compound": "O=C(NCc1cccc(Cl)c1F)c1c2n3c(c(O)c1=O)C(=O)N1CCOC1C3CC2 (single isomer, unassigned) [Compound 3]",
    "Property": "IC50",
    "Quantity Unit": "nM",
    "Value Observed": 372
  },
  {
    "Compound": "C[C@H]1CNC2C3CCc4c(C(=O)NCc5cccc(Cl)c5F)c(=O)c(O)c(n43)C(=O)N21 (some centres unmarked) [Compound 89]",
    "Property": "IC50",
    "Quantity Unit": "nM",
    "Value Observed": 120
  },
  {
    "Compound": "O=C(NCc1ccc(F)c(Cl)c1F)c1c2n3c(c(O)c1=O)C(=O)N1C4CCC(C4)OC1C3CC2 (centres unmarked) [Compound 157]",
    "Property": "IC50",
    "Quantity Unit": "nM",
    "Value Observed": 733
  },
  {
    "Compound": "C[C@H]1CN2C(=O)c3c(O)c(=O)c(C(=O)NCc4ccc(F)cc4F)c4n3C(CC4)C2N1 (some centres unmarked) [Compound 96]",
    "Property": "IC50",
    "Quantity Unit": "nM",
    "Value Observed": 13.8
  }
]

// input: 4 compounds below; output: IC50 for each
1. COC1CC2C3N(C)CCN3C(=O)c3c(O)c(=O)c(C(=O)NCc4ccc(F)cc4F)c1n32 (centres unmarked) [Compound 125]
2. CCNC1CC2C3OCCCN3C(=O)c3c(O)c(=O)c(C(=O)NCc4c(F)cc(F)cc4F)c1n32 (centres unmarked) [Compound 180]
3. C[C@H]1CN2C(=O)c3c(O)c(=O)c(C(=O)NCc4ccc(F)cc4F)c4n3C(CC4)C2N1 (some centres unmarked) [Compound 98]
4. C[C@H]1CCOC2C3CCc4c(C(=O)NCc5ccc(F)cc5F)c(=O)c(O)c(n43)C(=O)N21 (single isomer, unassigned) [Compound 63]

1. 57.7
2. 20.1
3. 16
4. 127

Dear reader, for each entry below, please note its IC50.
1. O=C(NCc1ccc(F)c(Cl)c1)c1c2n3c(c(O)c1=O)C(=O)N1CCOC1C3CC2 (single isomer, unassigned) [Compound 25]
2. CCNC1CC2C3OCCCN3C(=O)c3c(O)c(=O)c(C(=O)NCc4cccc(F)c4F)c1n32 (centres unmarked) [Compound 188]

1. 2540
2. 462

// batch mode: one IC50 value per listed entry
1. C[C@H]1CN2C(=O)c3c(O)c(=O)c(C(=O)NCc4cccc(Cl)c4F)c4n3C(CC4)C2N1C (some centres unmarked) [Compound 103]
2. C[C@H]1CNC2C3CCc4c(C(=O)NCc5cccc(Cl)c5F)c(=O)c(O)c(n43)C(=O)N21 (some centres unmarked) [Compound 90]

[15.4, 24.6]

* * *

- Test system: HIV-1 (NL4-3 strain)
- Experiment Summary: Assay for Inhibition of HIV Replication (kinetic assay, MT4-gag-GFP reporter cell line; VIKING)
- Type: cell-based
- Condition Description: MT4-GFP cells infected with HIV-1 NL4-3; 0% normal human serum (NHS); read-out: VIKING IP50 (nM) with 0% NHS
Field: IC50. Provide a value for each of the compounds that follow.
Give bare numbers, in nM.

Reference set (5 entries):
[
  {
    "Compound": "CCNC1CC2C3OCCCN3C(=O)c3c(O)c(=O)c(C(=O)NCc4ccc(F)cc4F)c1n32 (stereo not shown) [Compound 205]",
    "Property": "IC50",
    "Quantity Unit": "nM",
    "Value Observed": 11.3
  },
  {
    "Compound": "C[C@H]1CN2C(=O)c3c(O)c(=O)c(C(=O)NCc4ccc(F)cc4F)c4n3C(CC4)C2N1 (stereo partly shown) [Compound 98]",
    "Property": "IC50",
    "Quantity Unit": "nM",
    "Value Observed": 1.48
  },
  {
    "Compound": "O=C(NCc1c(F)cc(F)cc1F)c1c2n3c(c(O)c1=O)C(=O)N1CCOC1C3CC2 (single isomer, unassigned) [Compound 20]",
    "Property": "IC50",
    "Quantity Unit": "nM",
    "Value Observed": 0.727
  },
  {
    "Compound": "CC12NCCN1C(=O)c1c(O)c(=O)c(C(=O)NCc3ccc(F)cc3F)c3n1C2CC3 (stereo not shown)",
    "Property": "IC50",
    "Quantity Unit": "nM",
    "Value Observed": 2.41
  },
  {
    "Compound": "CCNC1CC2C3OCCCN3C(=O)c3c(O)c(=O)c(C(=O)NCc4cccc(Cl)c4F)c1n32 (stereo not shown) [Compound 194]",
    "Property": "IC50",
    "Quantity Unit": "nM",
    "Value Observed": 15.7
  }
]

Provide each entry's IC50 from the list below.
1. O=C(NCc1ccc(F)cc1F)c1c2n3c(c(O)c1=O)C(=O)N1CCCCOC1C3CC2 (single isomer, unassigned) [Compound 71]
2. COC1CC2C3OCCN3C(=O)c3c(O)c(=O)c(C(=O)NCc4ccc(F)cc4F)c1n32 (single isomer, unassigned) [Compound 78]

1.25
2.12

* * *

- Tested on: HIV-1 (NL4-3 strain)
- Experiment Summary: Assay for Inhibition of HIV Replication (kinetic assay, MT4-gag-GFP reporter cell line; VIKING)
- Type: cell-based
- Condition Description: MT4-GFP cells infected with HIV-1 NL4-3; 100% normal human serum (NHS); read-out: VIKING IP50 (nM) with 100% NHS
I'd appreciate it if you could supply IC50 values for the items below.
Numbers only, in nM.

[
  {
    "Compound": "O=C(NCc1cccc(Cl)c1F)c1c2n3c(c(O)c1=O)C(=O)N1CCCOC1C3CC2 (single isomer, unassigned) [Compound 50]",
    "Quantity Unit": "nM",
    "IC50": 1070
  },
  {
    "Compound": "C[C@H]1CCOC2C3CCc4c(C(=O)NCc5ccc(F)cc5F)c(=O)c(O)c(n43)C(=O)N21 (single isomer, unassigned) [Compound 62]",
    "Quantity Unit": "nM",
    "IC50": 528
  },
  {
    "Compound": "C[C@H]1CN2C(=O)c3c(O)c(=O)c(C(=O)NCc4cccc(Cl)c4F)c4n3C(CC4)C2N1 (stereo partly shown) [Compound 94]",
    "Quantity Unit": "nM",
    "IC50": 14.5
  }
]

Report IC50 for O=C(NCc1cccc(Cl)c1F)c1c2n3c(c(O)c1=O)C(=O)N1CCOC1C3CC2 (single isomer, unassigned) [Compound 4] please.
93.6
